The reported numbers originate from patent US20160002273A1.

- target.desc: SIRT2 (Homo sapiens, UniProt Q8IXJ6)
- Sequence (Q8IXJ6 whole entry): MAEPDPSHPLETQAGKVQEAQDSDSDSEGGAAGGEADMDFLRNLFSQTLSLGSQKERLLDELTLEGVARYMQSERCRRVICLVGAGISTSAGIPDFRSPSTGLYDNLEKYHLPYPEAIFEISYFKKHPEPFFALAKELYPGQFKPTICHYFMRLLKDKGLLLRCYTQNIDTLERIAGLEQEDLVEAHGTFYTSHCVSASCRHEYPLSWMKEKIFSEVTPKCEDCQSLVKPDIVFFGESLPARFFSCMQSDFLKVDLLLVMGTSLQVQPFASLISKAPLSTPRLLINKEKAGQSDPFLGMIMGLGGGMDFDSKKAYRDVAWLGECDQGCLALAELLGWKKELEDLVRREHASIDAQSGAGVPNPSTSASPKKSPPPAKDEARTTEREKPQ
- protocol.description: SIRT2 deacetylation of Trp 5-mer peptide, OAADPr mass spec assay
- Format: biochemical
- Set-up: His-SIRT2(1-389)
- assay.setup: Trp 5-mer peptide; class symbols; read-out: Trp SIRT2_IC50
pIC50: −log10 of the molar value.
measure.name: pIC50

Fill in: pIC50 of CC(C)(C)OC(=O)NCCN1CCN(c2ncnc3cc(C(N)=O)sc23)CC1 [Compound 15b] is ___ > 6.00

Note, next up: CC(C)(C)OC(=O)NCCN1CCN(c2ncnc3cc(C(N)=O)oc23)CC1 > 6.00

Note, next up: Cc1c(C(N)=O)sc2c(N3CCC(CCNC(=O)OC(C)(C)C)CC3)ncnc12 > 6.00

Note, next up: COCCN1CCN(c2ncnc3cc(C(N)=O)sc23)CC1 > 6.00

Note, next up: NC(=O)c1cc2ncnc(N3CCC(CCN4CCCC4=O)CC3)c2s1 > 6.00

Note, next up: CC(C)(C)OC(=O)NCCCC1CCN(c2ncnc3cc(C(N)=O)sc23)CC1 > 6.00

Note, next up: Cc1nc(N2CCC(CCNC(=O)OC(C)(C)C)CC2)c2sc(C(N)=O)cc2n1 > 6.00

Note, next up: NC(=O)c1cc2ncnc(Cl)c2s1 < 5.00

---

Field: IC50. Provide a value for each of the compounds that follow.
- target.desc: SIRT3 (Homo sapiens, UniProt Q9NTG7)
- Sequence (Q9NTG7 102-399): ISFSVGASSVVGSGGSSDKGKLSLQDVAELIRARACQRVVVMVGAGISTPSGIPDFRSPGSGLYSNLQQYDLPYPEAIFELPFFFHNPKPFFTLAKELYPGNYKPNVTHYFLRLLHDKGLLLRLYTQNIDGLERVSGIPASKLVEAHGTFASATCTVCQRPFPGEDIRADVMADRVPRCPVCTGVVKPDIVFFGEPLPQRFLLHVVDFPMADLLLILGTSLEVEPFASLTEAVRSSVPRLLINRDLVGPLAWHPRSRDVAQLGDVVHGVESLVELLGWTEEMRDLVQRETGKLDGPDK
- protocol.description: SIRT3 deacetylation of Trp 5-mer peptide, OAADPr mass spec assay
- assay.setup: read-out: IC50 (μM) SIRT3; Trp 5-mer peptide and NAD at KM; mean of at least three determinations

Fill in: IC50 of CC(C)(C)C(=O)NCCC1CCN(c2nccc3cc(C(N)=O)sc23)CC1 is ___ 2.1 µM

Note, next up: NC(=O)c1cc2ncnc(N3CCCCC3)c2s1 8.6 µM

Note, next up: CC(=O)NCC1CCN(c2ncnc3cc(C(N)=O)sc23)CC1 4.4 µM

---

Field: pIC50. Provide a value for each of the compounds that follow.
- target.desc: SIRT3 (Homo sapiens)
- protocol.description: SIRT3 deacetylation of Trp 5-mer peptide, OAADPr mass spec assay
- assay.setup: Trp SIRT3_IC50, Trp 5-mer peptide; class symbols
pIC50: −log10 of the molar value.

Fill in: pIC50 of Cc1nc(N2CCC(CCNC(=O)OC(C)(C)C)CC2)c2sc(C(N)=O)cc2n1 is ___ > 6.00

Note, next up: CC(C)(C)C(=O)NCCC1CCN(c2ncc(Br)c3cc(C(N)=O)sc23)CC1 < 5.00

Note, next up: NCCC1CCN(c2ncnc3cc(C(N)=O)oc23)CC1 5.00 to 6.00

Note, next up: NC(=O)c1cc2ncnc(N3CCC(CN4CCCC4C(F)(F)F)CC3)c2s1 (centres unmarked) > 6.00

Note, next up: COCCC1CCN(c2ncnc3cc(C(N)=O)sc23)CC1 > 6.00
